Tested on: tobacco leaves
PROCEDURE DETAILS: Effect of peptide infiltration on tobacco leaves (lesion size)
Type: in vivo
EXPERIMENTAL CONDITIONS: Table 2; 250 µM infiltrated into tobacco leaves; ± confidence interval
Where a SMILES comes first, the peptide text is derived from it. [ ]: non-standard residue; d: D form. The star is where a group is joined. Lauroyl = CCCCCCCCCCCC(=O)*
Listing of recorded Size of the lesion (mm) 250 µM by entry.
Answer in mm, number only, no unit symbol.

CCCCCCCCCCCC(=O)NCCCC[C@H](NC(=O)[C@H](CCCCN)NC(=O)[C@H](CCCCN)NC(C)=O)C(=O)N[C@H](Cc1ccccc1)C(=O)N[C@@H](CCCCN)C(=O)N[C@@H](CCCCN)C(=O)N[C@H](C(=O)N[C@@H](CC(C)C)C(=O)N[C@@H](CCCCN)C(=O)N[C@@H](Cc1ccc(O)cc1)C(=O)N[C@@H](CC(C)C)C(N)=O)[C@@H](C)CC [BP500, Ac-KKK(COC11H23)fKKILKYL-NH2] (Ac-KKK(Lauroyl)[dF]KKILKYL-NH2) = 9
CCCC(=O)N[C@@H](CCCCN)C(=O)N[C@@H](CCCCN)C(=O)N[C@@H](CC(C)C)C(=O)N[C@H](Cc1ccccc1)C(=O)N[C@@H](CCCCN)C(=O)N[C@@H](CCCCN)C(=O)N[C@H](C(=O)N[C@@H](CC(C)C)C(=O)N[C@@H](CCCCN)C(=O)N[C@@H](Cc1ccc(O)cc1)C(=O)N[C@@H](CC(C)C)C(N)=O)[C@@H](C)CC = 12

Here is another molecule to look at.
## Task Query (molecule): `CCCCCCCCCCCC(=O)NCCCC[C@H](NC(=O)[C@H](CC(C)C)NC(=O)[C@@H](NC(=O)[C@H](CCCCN)NC(=O)[C@H](CCCCN)NC(=O)[C@@H](Cc1ccccc1)NC(=O)[C@H](CC(C)C)NC(=O)[C@H](CCCCN)NC(=O)[C@H](CCCCN)NC(C)=O)[C@@H](C)CC)C(=O)N[C@@H](Cc1ccc(O)cc1)C(=O)N[C@@H](CC(C)C)C(N)=O` ; field requested: Size of the lesion (mm) 250 µM
## Result 18

----------
System: horse erythrocytes
PROCEDURE DETAILS: Hemolytic activity (hemoglobin release from erythrocytes)
Type: cell-based
EXPERIMENTAL CONDITIONS: D-amino acid lipopeptides, 250 µM, TRIS buffer pH 7.2, 1 h, 37 °C, relative to melittin, ± confidence interval (α = 0.05)
Where a SMILES comes first, the peptide text is derived from it. [ ]: non-standard residue; d: D form. The star is where a group is joined. Butyryl = CCCC(=O)*
MEASURED ATTRIBUTE: Hemolysis (%) 250 µM
Write it as a number; the unit % goes unstated.

## Task Can you look up the measured Hemolysis (%) 250 µM of CCCC(=O)NCCCC[C@H](NC(=O)[C@@H](NC(=O)[C@H](CCCCN)NC(=O)[C@H](CCCCN)NC(=O)[C@@H](Cc1ccccc1)NC(=O)[C@H](CC(C)C)NC(=O)[C@H](CCCCN)NC(=O)[C@H](CCCCN)NC(C)=O)[C@@H](C)CC)C(=O)N[C@@H](CCCCN)C(=O)N[C@@H](Cc1ccc(O)cc1)C(=O)N[C@@H](CC(C)C)C(N)=O [BP474, Ac-KKLfKKIK(COC3H7)KYL-NH2] (Ac-KKL[dF]KKIK(Butyryl)KYL-NH2) for me?
## Result 0
